Target: Gal(b1-4)GalNAc(a1-3)[Fuc(a1-2)]Gal(b1-4)GlcNAc
Assay: glycan array binding signal (z-score within array); higher = stronger binding
Conditions: glycan notation: IUPAC condensed, linker removed
Shown is part of a subset that was picked to be rich in the strongest signals.
measurementKind: glycan array binding signal (z-score)

Record GNA (Galanthus nivalis), P30617 (protein) MAKASLLILAAIFLGVITPSCLSDNILYSGETLSTGEFLNYGSFVFIMQEDCNLVLYDVDKPIWATNTGGLSRSCFLSMQTDGNLVVYNPSNKPIWASNTGGQNGNYVCILQKDRNVVIYGTDRWATGTHTGLVGIPASPPSEKYPTAGKIKLVTAK . Reported glycan array binding signal (z-score): -0.192
